Each recorded value in this set is attributed to PubChem BioAssay (NCI).

Test system: RPMI-8226 leukemia
Assay: NCI-60 one-dose screen, 48 h (100 = growth as untreated, 0 = no growth, -100 = all killed)
Settings: 10 µM unless noted
Procedure: Growth inhibition of the RPMI-8226 human tumor cell line is measured as a screen for anti-cancer activity. Cells are grown in 96 well plates and exposed to the test compound for 48 hours. Compounds are tested at a single concentration, which is 10^-5 M for most compounds. The reported endpoint is percent growth (GI% or GIPRCNT), where numbers from 0 - 100% represent growth inhibition, and numbers from -100% - 0 represent cell death. For example, a value of 40 represents 60% growth inhibition. […]
This is part of a sample that, as a whole, favours compounds with a hit. Of some 83,000 tested, about 20% had one in any assay.
reportedEndpoint: growth (%)
Give bare numbers, in %.

Answered examples (8):
O=C(O)C(=Cc1c2ccccc2cc2ccccc12)C(=O)O
103
C=C1C(=O)O[C@H]2[C@H]1CC/C(COC(=O)NCCc1cccc(OC)c1)=C\CC[C@@]1(C)O[C@@H]21
25.1
O=C1OC(c2ccccc2)=N/C1=C\c1ccc([N+](=O)[O-])cc1
102
C[C@]12CC[C@@H]3c4cc(O)c(O)cc4CC[C@H]3[C@@H]1CC[C@@H]2O
30.9
CCC1=C[C@@H]2CN(C1)Cc1c([nH]c3ccccc13)[C@@](C(=O)OC)(c1cc3c(cc1OC)N(C=O)[C@H]1[C@@](O)(C(=O)OC)[C@H](OC(C)=O)[C@]4(CC)[C@@H]5C[C@@H]5CN5CC[C@]31[C@@H]54)C2
-6.79
CCC#CC[C@H]1C/C=C2/C(=O)C=C[C@@H]2C/C=C\CCCC(=O)O1
4.15
COc1ccc(/C=C2\CCCC3=C2NC(C)=NC3c2ccc(OC)c(OC)c2)cc1OC (centres undefined)
-25.8
O=C(Nc1ccc(F)cc1)c1cc([N+](=O)[O-])ccc1O
32.4

## Task Fill blank: measured growth of the molecule COc1ccc(C2CC(c3cccs3)=NN2c2ccc(S(=O)(=O)NC(=O)NCc3cccc(OC)c3)cc2)cc1 (centres undefined) is ____.
## Result 95.3
